- assay.notes: Biodistribution in PC-3 tumor-bearing CB17-SCID mice
- Assay type: in vivo
- condition.parameters: mouse, liver, intravenous, 100 pmol, ^177Lu-labeled; 1 h p.i.; 100 pmol; n = 4; read-out: Uptake in Liver
Starred links: 1 amine or outer side, 2 acyl side, 3 side chain; linkers in the order of their positions; H or OH if unused. Non-standard residues stand in square brackets, D forms with d. Residues, ends and D or L forms follow the SMILES beside them. *: point of attachment. DOTA = O=C(O)CN1CCN(CC(=O)O)CCN(CC(=O)*)CCN(CC(=O)O)CC1; Sta = CC(C)C[C@H](N)[C@@H](O)CC(=O)O; Bta = N[C@@H](Cc1csc2ccccc12)C(=O)O; X1 = O=C(CN1CCC(N[*:1])CC1)[*:2]; hSer = N[C@@H](CCO)C(=O)O
assay.readout: tissue uptake at 1 h (%ID/g)
Express the result in %ID/g but write the number alone.

molecule	tissue uptake at 1 h (%ID/g)
CC(C)C[C@H](NC(=O)C[C@H](O)[C@H](CC(C)C)NC(=O)[C@H](Cc1c[nH]cn1)NC(=O)CNC(=O)[C@@H](NC(=O)[C@H](C)NC(=O)[C@H](Cc1c[nH]c2ccccc12)NC(=O)[C@H](CCO)NC(=O)[C@@H](Cc1ccccc1)NC(=O)CN1CCC(NC(=O)CN2CCN(CC(=O)O)CCN(CC(=O)O)CCN(CC(=O)O)CC2)CC1)C(C)C)C(N)=O [[^177Lu]Lu-[Hse^7]RM2, metal not drawn] ({DOTA}-[X1][dF][hSer]WAVGH[Sta]L-NH2)	0.9

// moving on: another record for tissue uptake at 1 h
Notebook: CC(C)C[C@H](NC(=O)C[C@H](O)[C@H](CC(C)C)NC(=O)[C@H](Cc1c[nH]cn1)NC(=O)CNC(=O)[C@@H](NC(=O)[C@H](C)NC(=O)[C@H](Cc1csc2ccccc12)NC(=O)[C@H](CCC(N)=O)NC(=O)[C@@H](Cc1ccccc1)NC(=O)CN1CCC(NC(=O)CN2CCN(CC(=O)O)CCN(CC(=O)O)CCN(CC(=O)O)CC2)CC1)C(C)C)C(N)=O [[^177Lu]Lu-[Bta^8]RM2, metal not drawn] ({DOTA}-[X1][dF]Q[Bta]AVGH[Sta]L-NH2) , tissue uptake at 1 h read as 1.1
